The measurements presented in this section are drawn from paper PMC2854131.

Give measured Cmax for each item. Keep answers brief.
assay: in vivo; conditions: Balb/c, mouse, ip, 2 mg/kg
The response must be a number in ng/mL with no trailing unit.

Prompt: Reported Cmax, molecule NCCCCn1c(-c2ccccc2)cc2ccc(C(=O)c3cc(CC(=O)NO)c(-c4cccc(O)c4)s3)cc21 [Inhibitor H3H] : ____
Response: 497

Prompt: Now the molecule NCCCCn1c(-c2ccccc2)c(F)c2ccc(C(=O)c3cc(CC(=O)NO)c(-c4cccc(N)c4)s3)cc21 [Inhibitor F3A]
Response: 256

Prompt: Now the molecule NCCCCn1c(-c2ccccc2)c(F)c2ccc(C(=O)c3cc(CC(=O)NO)c(-c4ccc(O)cc4)s3)cc21 [Inhibitor F4H]
Response: 738
